The measured values listed here are drawn from patent US20180339963A1.

Test: in vivo
Conditions: Sprague-Dawley, rat, ip
readout-type: TD50

stdin: Returns the measured TD50 for the input compound. Input: CCC(C)CCOC(=O)Nc1ccc(S(N)(=O)=O)cc1 (stereo not shown) [Compound 10]
stdout: > 250 mg/kg

###

Below, each entry is listed with its recorded melting point.

Worked cases, answers included:
>>> print(df.to_string())
                                   compound       reported
0  CCC(C)C(C)OC(=O)Nc1ccc(S(N)(=O)=O)cc1 (centres unmarked)  179 to 180 °C
1  CC(COC(=O)Nc1ccc(S(N)(=O)=O)cc1)CC(C)(C)C (centres unmarked)  199 to 201 °C
2  CCCC(COC(=O)Nc1ccc(S(N)(=O)=O)cc1)C(C)CC (centres unmarked)  151 to 152 °C
3  CCC(C)OC(=O)Nc1ccc(S(N)(=O)=O)cc1 (centres unmarked) [Compound 11, sec-butyl(4-sulfamoylphenyl)carbamate]  190 to 191 °C
4     CCCC(CCC)COC(=O)Nc1ccc(S(N)(=O)=O)cc1  176 to 177 °C
5  CC(C)C(OC(=O)Nc1ccc(S(N)(=O)=O)cc1)C(C)C  193 to 194 °C
6  CCCCC(CC)COC(=O)Nc1ccc(S(N)(=O)=O)cc1 (centres unmarked)  192 to 195 °C
7  NS(=O)(=O)c1ccc(NC(=O)OCCc2ccccc2)cc1 [Compound 5, phenethyl (4-sulfamoylphenyl)carbamate]  212 to 213 °C

stdin: Returns the measured melting point for the input compound. Input: CC(C)(C)CCOC(=O)Nc1ccc(S(N)(=O)=O)cc1
stdout: 170 to 173 °C

stdin: Returns the measured melting point for the input compound. Input: CCC(CC)COC(=O)Nc1ccc(S(N)(=O)=O)cc1
stdout: 162 to 165 °C

stdin: Returns the measured melting point for the input compound. Input: CCC(C)CCOC(=O)Nc1ccc(S(N)(=O)=O)cc1 (centres unmarked)
stdout: 168 to 169 °C
